Cited source: patent US20240316038A1

# TGT: APOL1 G2 (Homo sapiens, UniProt O14791, DEL388-389)
# Construct: expressed in transfected cells; host or cells: HEK293 T-REx clonal lines: HEK T-REx/GCaMP6f/APOL1 G2 K6.3 in A1, HEK293/T-REx APOL1 G2/clone #2 in A2
# Sequence (O14791 with tags, fused parts or gaps DEL388-389): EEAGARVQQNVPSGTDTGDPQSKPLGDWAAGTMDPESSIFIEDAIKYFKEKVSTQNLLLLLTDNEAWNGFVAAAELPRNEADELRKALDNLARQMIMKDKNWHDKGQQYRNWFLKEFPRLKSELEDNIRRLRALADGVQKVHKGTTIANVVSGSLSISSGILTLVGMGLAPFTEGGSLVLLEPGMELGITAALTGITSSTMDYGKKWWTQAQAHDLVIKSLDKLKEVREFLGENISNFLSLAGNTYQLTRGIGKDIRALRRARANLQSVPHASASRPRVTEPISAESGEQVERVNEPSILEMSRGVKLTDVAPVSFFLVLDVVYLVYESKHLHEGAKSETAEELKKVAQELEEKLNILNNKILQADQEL
# ASSAY_METHOD_TEXT: APOL1 calcium transport inhibition assay (GCaMP6f calcium influx, FLIPR) in HEK T-REx/GCaMP6f/APOL1 G2 K6.3 cells
# Type: cell-based
# PROTOCOL_CONDITIONS: inhibition of APOL1-mediated calcium influx; geometric mean of at least 2 assay runs, † = single assay run (technical duplicate)
RECORDED_ENDPOINT: log10 of AC50 (log10 of the value in nM)
Scale: log10; quantity: AC50; unit before log: nM

input: Can you look up log10 of AC50 on APOL1 G2 (Homo sapiens, UniProt O14791, DEL388-389) for `CN(c1ccc(OC[C@@H](O)CNCCc2cccc(C#N)c2)cc1)S(C)(=O)=O` ?
output: 3.62

input: Can you look up log10 of AC50 on APOL1 G2 (Homo sapiens, UniProt O14791, DEL388-389) for CC(Cc1cccc(Cl)c1)NC[C@@H](O)COc1ccc(N(C)S(C)(=O)=O)cc1 (single isomer, unassigned) [Compound 88] ?
output: 2.53

input: Can you look up log10 of AC50 on APOL1 G2 (Homo sapiens, UniProt O14791, DEL388-389) for CC1CC(COc2ccc(S(C)(=O)=O)cc2)CN1CCc1cc(Cl)cc(C#N)c1 (single isomer, unassigned) [Compound 202] ?
output: 2.93

input: Can you look up log10 of AC50 on APOL1 G2 (Homo sapiens, UniProt O14791, DEL388-389) for `O=S(=O)(c1ccc(OC[C@@H]2CN(CCc3cccc(Cl)c3)CCN2)cc1)C1CNC1` ?
output: 2.51

input: Can you look up log10 of AC50 on APOL1 G2 (Homo sapiens, UniProt O14791, DEL388-389) for CS(=O)(=O)c1ccc(OCC2CN(CCc3cccc(Cl)c3)CCC2O)cc1 (single isomer, unassigned) [Compound 32] ?
output: 2.86

input: Can you look up log10 of AC50 on APOL1 G2 (Homo sapiens, UniProt O14791, DEL388-389) for CS(=O)(=O)c1ccc(OCC2CN(CCc3cccc(Cl)c3)CCC2O)cc1 (racemic) [Compound 27] ?
output: 3.18

* * *

Field: EC50. Provide a value for each of the compounds that follow.
# TGT: APOL1 G2 (Homo sapiens, UniProt O14791, DEL388-389)
# ASSAY_METHOD_TEXT: Rescue of HEK293 cell death caused by overexpression of APOL1 (CellTiter-Glo luminescence), HEK293/T-REx APOL1 G2/clone #2
# PROTOCOL_CONDITIONS: reversal of cell death caused by overexpression of APOL1; geometric mean of at least 2 assay runs, † = single assay run (technical duplicate)
# Description: A HEK293 clonal cell line overexpressing APOL1 G2 (HEK293/T-REx APOL1 G2/clone #2) was maintained in 1×DMEM-GlutaMax (Gibco, 10569-010) media with 10% tetracycline-free FBS (Takara Bio USA, 631101), 5 μg/mL Blasticidin (Gibco, A1113903), and 100 μg/mL Zeocin (Invitrogen, R25001) in T75 flasks. […] The suspension was gently mixed, and cells were counted using a Countess Cell Counting Chamber (Invitrogen). […] Luminescence was measured on an Envision plate reader. […]
Quick note: give the figure in µM, leave out the unit.

input: Field request: EC50 | item: CN(c1ccc(OCC2CN(CCc3cccc(Cl)c3)CCCO2)cc1)S(C)(=O)=O (single isomer, unassigned) [Compound 12]
output: 3

input: Field request: EC50 | item: CC(CN1C[C@@H](COc2ccc(S(C)(=O)=O)cc2)C[C@H]1C)c1cc(Cl)cc(C#N)c1 (single isomer, unassigned) [Compound 143]
output: 0.349
